Test system: HaCat
experimentalProtocol: Cytotoxic Profiling of Annotated Libraries Using Quantitative High-Throughput Screening (AID 1296008); also: nearly all actives have a fitted effect of over 60% in size
cond: Five cell lines viability, CellTiter-Glo ATP luminescence, 48-72 h
Results filed as inconclusive are left out. Active and inactive are the calls of the source. Calls follow the shape of the dose curve; as a rule, active = well fitted inhibition curve with a large enough effect; inconclusive = small, poorly fitted or top-dose-only effect; inactive = flat fitted curve, though single readings scatter. Where a SMILES comes first, the peptide text is derived from it. The star is where a group is joined. Hexanoyl = CCCCCC(=O)*
readoutKind: outcome

# example entries with known answers
[[record]]
molecule = "CC(=O)O[C@@H]1C(O)C[C@@]2(C)C(CC[C@@H](C)C23Cc2c(O)cc4c(c2O3)CNC4=O)C1(C)C (stereo partly specified)"
readoutkind = "outcome"
measvalue = "inactive"

[[record]]
molecule = "C[C@@H](c1ccccc1)N(C(N)=NC#N)c1cccc2ncccc12"
readoutkind = "outcome"
measvalue = "inactive"

[[record]]
molecule = "CC1=C2CC(O)(C(C)(C)O)C(O[C@@H]3O[C@H](CO)[C@@H](O)[C@H](O)[C@H]3O)CC(C)C2CC1=O (stereo partly specified)"
readoutkind = "outcome"
measvalue = "inactive"

[[record]]
molecule = "C[C@@H]1CC[C@]2(C(=O)O[C@@H]3O[C@H](CO[C@@H]4O[C@H](CO)[C@@H](O[C@@H]5O[C@@H](C)[C@H](O)[C@@H](O)[C@H]5O)[C@H](O)[C@H]4O)[C@@H](O)[C@H](O)[C@H]3O)CC[C@]3(C)C(=CCC4[C@@]5(C)C[C@@H](O)[C@H](O)[C@@](C)(CO)C5CC[C@]43C)C2[C@H]1C (stereo partly specified)"
readoutkind = "outcome"
measvalue = "inactive"

[[record]]
molecule = "C=C(C(=O)O)[C@@H]1CC[C@@]2(C)CCC[C@@](C)(O)[C@@H]2C1"
readoutkind = "outcome"
measvalue = "inactive"


Given the molecule CC(C)(O)C(O)C(=O)OCc1ccc(O[C@@H]2O[C@H](CO)[C@@H](O)[C@H](O)[C@H]2O)cc1 (stereo partly specified) , what is its reported outcome?
inactive

Given the molecule "C=C1C(=O)O[C@@H]2C[C@]3(C)[C@@H](CCC(C)=O)[C@@H]3C[C@H]12" , what is its reported outcome?
inactive

Given the molecule CC1(C(=O)O)CC[C@]2(C(=O)OC3OC(CO)C(O)C(O)C3O)CC[C@]3(C)C(=CCC4[C@@]5(C)CC[C@H](OC6OCC(O)C(O)C6OC6OC(CO)C(O)C(O)C6O)C(C)(C)C5CC[C@]43C)C2C1 (stereo partly specified) , what is its reported outcome?
inactive

Given the molecule CCCCCC(=O)N1CCC[C@H]1C(=O)N[C@@H](Cc1ccc(O)cc1)C(=O)OC (Hexanoyl-Pro-Tyr-OMe) , what is its reported outcome?
inactive

Given the molecule "C/C=C(\C)C(=O)OC[C@H]1O[C@H](O[C@H]2O[C@H](CO)[C@@H](O)[C@H](O)[C@H]2O[C@@H]2O[C@H](CO)[C@@H](O)[C@H](O)[C@H]2O)[C@H](O[C@@H]2O[C@H](CO)[C@@H](O)[C@H](O)[C@H]2O)[C@@H](O)[C@@H]1O" , what is its reported outcome?
inactive

Given the molecule CC1(C)CC[C@]2(C(=O)O[C@@H]3O[C@H](CO)[C@@H](O)[C@H](O)[C@H]3O)CC[C@]3(C)C(=CCC4[C@@]5(C)CC[C@H](O[C@@H]6O[C@H](C(=O)O)[C@@H](O[C@@H]7O[C@H](CO)[C@@H](O)[C@H](O)[C@H]7O)[C@H](O)[C@H]6O[C@@H]6O[C@H](CO)[C@@H](O)[C@H](O)[C@H]6O)C(C)(C)C5CC[C@]43C)C2C1 (stereo partly specified) , what is its reported outcome?
inactive
